Data origin: patent US10745410B2

# key: entry, value: pIC50
target: CDC7/DBF4 (Homo sapiens (Human), UniProt O00311); assay: CDC7 biochemical assay (ADP-Glo, MCM2 substrate); conditions: ATP 500 uM; MCM2 400 ug/ml; CDC7/DBF4 200 nM; 180 mins at 27° C.; read-out: CDC7 enzyme IC50 (nm)
Sequence (O00311 whole entry): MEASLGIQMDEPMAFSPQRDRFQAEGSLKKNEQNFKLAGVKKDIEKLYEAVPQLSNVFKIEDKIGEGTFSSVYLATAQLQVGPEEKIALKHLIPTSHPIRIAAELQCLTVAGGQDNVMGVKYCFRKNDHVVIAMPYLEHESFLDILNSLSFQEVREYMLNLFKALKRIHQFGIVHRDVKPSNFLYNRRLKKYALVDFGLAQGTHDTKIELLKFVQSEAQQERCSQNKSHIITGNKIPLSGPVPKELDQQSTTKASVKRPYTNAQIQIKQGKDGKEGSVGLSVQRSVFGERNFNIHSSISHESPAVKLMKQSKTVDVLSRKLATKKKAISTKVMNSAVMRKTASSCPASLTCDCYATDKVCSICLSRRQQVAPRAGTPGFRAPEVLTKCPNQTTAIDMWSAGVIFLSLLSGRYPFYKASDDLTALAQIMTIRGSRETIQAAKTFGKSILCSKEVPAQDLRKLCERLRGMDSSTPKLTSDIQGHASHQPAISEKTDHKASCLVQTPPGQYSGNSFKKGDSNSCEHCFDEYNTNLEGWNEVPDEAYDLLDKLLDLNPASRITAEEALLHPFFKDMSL
Sequence (Q9UBU7 whole entry partner): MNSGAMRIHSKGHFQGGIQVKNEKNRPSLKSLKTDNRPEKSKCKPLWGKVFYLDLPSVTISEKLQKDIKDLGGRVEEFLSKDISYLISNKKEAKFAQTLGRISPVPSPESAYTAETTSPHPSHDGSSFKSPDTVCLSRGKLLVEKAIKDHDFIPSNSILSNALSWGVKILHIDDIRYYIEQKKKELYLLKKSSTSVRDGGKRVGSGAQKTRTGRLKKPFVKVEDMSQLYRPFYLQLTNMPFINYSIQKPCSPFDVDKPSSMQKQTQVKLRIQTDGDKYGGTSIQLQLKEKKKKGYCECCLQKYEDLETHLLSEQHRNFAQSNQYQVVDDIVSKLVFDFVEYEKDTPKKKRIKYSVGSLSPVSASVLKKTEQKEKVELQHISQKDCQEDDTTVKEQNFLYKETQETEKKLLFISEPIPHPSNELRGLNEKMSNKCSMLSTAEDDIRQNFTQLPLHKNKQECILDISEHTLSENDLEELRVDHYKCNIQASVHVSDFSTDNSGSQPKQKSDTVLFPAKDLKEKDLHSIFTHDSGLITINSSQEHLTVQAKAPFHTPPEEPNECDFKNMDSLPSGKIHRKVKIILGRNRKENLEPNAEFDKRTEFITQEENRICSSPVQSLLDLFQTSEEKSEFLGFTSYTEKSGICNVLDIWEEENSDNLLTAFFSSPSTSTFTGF
pIC50: −log10 of the molar value. Where a name gives a salt, the structure may show the parent alone.
Assay Metric: pIC50

| Compound | Result |
| --- | --- |
| CC[C@H](N)c1nc2cc(-c3ccncc3F)sc2c(=O)[nH]1 [Compound 13b, hydrochloride] | > 7.00 |
| CC(C)[C@@H](N)c1nc2cc(-c3ccncc3F)sc2c(=O)[nH]1 [Compound 29, hydrochloride] | 5.00 to 6.00 |
| CC(C)[C@H](N)c1nc2cc(-c3cnoc3)sc2c(=O)[nH]1 [Compound 7e, hydrochloride] | < 5.00 |
| CC(C)(N)c1nc2cc(-c3ccnc(F)c3)sc2c(=O)[nH]1 [Compound 39, hydrochloride] | 5.00 to 6.00 |
| CC(C)[C@H](N)c1nc2cc(-c3c[nH]cn3)sc2c(=O)[nH]1 [Compound 45, hydrochloride] | < 5.00 |
| CC(C)[C@H](N)c1nc2cc(-c3ccncn3)sc2c(=O)[nH]1 [Compound 53, hydrochloride] | 6.00 to 7.00 |
| CC(C)[C@H](N)c1nc2cc(-c3cc(F)ncc3F)sc2c(=O)[nH]1 [Compound 7d, hydrochloride] | 6.00 to 7.00 |
| C[C@H](N)c1nc2cc(-c3ccncc3F)sc2c(=O)[nH]1 [Compound 21, hydrochloride] | 6.00 to 7.00 |

====

biological target: CDC7/DBF4 (Homo sapiens (Human)); experiment: CDC7 biochemical assay (ADP-Glo, MCM2 substrate); settings: ATP 500 uM; MCM2 400 ug/ml; CDC7/DBF4 200 nM; 180 mins at 27° C.; read-out: CDC7 enzyme IC50 (nm)
pIC50: −log10 of the molar value. Where a name gives a salt, the structure may show the parent alone.
Assay Metric: pIC50

| Compound | Subject Of Test | Result |
| --- | --- | --- |
| CC(C)[C@H](N)c1nc2cc(-c3cn[nH]n3)sc2c(=O)[nH]1 [Compound 58, hydrochloride] | CDC7/DBF4 (Homo sapiens (Human)) | 5.00 to 6.00 |
| CC(C)[C@H](N)c1nc2cc(N3CCNCC3)sc2c(=O)[nH]1 [Compound 67, hydrochloride] | CDC7/DBF4 (Homo sapiens (Human)) | 5.00 to 6.00 |
| CC(C)[C@H](N)c1nc2cc(-c3cc[nH]n3)sc2c(=O)[nH]1 [Compound 7c, hydrochloride] | CDC7/DBF4 (Homo sapiens (Human)) | 5.00 to 6.00 |
| CC(C)[C@H](N)c1nc2cc(-c3cc[nH]c3)sc2c(=O)[nH]1 [Compound 65, hydrochloride] | CDC7/DBF4 (Homo sapiens (Human)) | < 5.00 |
| N[C@H](c1nc2cc(-c3ccncc3F)sc2c(=O)[nH]1)C1CC1 [Compound 25, hydrochloride] | CDC7/DBF4 (Homo sapiens (Human)) | > 7.00 |
| CC(C)[C@H](N)c1nc2cc(-c3ccnnc3)sc2c(=O)[nH]1 [Compound 49, hydrochloride] | CDC7/DBF4 (Homo sapiens (Human)) | 5.00 to 6.00 |
